- TGT: Recombinant human renin (Homo sapiens, UniProt P00797)
- Construct: isolate the active form (residues 67-406); made in house; host or cells: FreeStyle 293-F cells (transient expression of pcDNA3.1(+)/hREN)
- Sequence (P00797 67-406): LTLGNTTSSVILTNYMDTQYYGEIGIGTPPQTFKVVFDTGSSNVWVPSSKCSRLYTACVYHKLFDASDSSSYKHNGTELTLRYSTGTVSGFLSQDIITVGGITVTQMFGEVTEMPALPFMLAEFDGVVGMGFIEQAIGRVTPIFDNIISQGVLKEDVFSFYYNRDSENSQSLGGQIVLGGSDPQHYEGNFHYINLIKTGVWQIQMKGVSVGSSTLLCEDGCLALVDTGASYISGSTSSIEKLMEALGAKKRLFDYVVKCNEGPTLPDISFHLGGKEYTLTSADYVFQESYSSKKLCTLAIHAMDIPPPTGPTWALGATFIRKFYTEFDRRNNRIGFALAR
- TEST DETAILS: In vitro enzymatic activity assay of renin inhibitors (fluorogenic peptide substrate)
- Type: biochemical
- MEASUREMENT SETUP: read-out: IC50 of Exemplified Compounds Against Renin
- Protocol: Test compounds in varying concentrations may be reacted with recombinant human renin in the presence of substrate, e.g., QXL520-γ-Abu-[…](HiLyteFluo488)-Arg-OH (Anaspec, San Jose, Calif.). […] Inhibition constants (IC50) may be calculated by non-linear curve fitting of the compound concentrations and fluorescence intensities to the standard IC50 equation. […] The fluorescence intensity is determined upon the addition of substrate and determined again after incubation at 37° C. for one hour. […]
pIC50: −log10 of the molar value.
PARAMETER: pIC50

Below: 5 compounds and their reported pIC50.
COCCCn1c([C@@H]2CCCN(C(=O)C[C@H](N)c3cccc(C(F)(F)F)c3)C2)nc2ccccc21 :: 6.00 to 7.00
COCCCn1c([C@@H]2CCCN(C(=O)[C@@H]3CN(S(=O)(=O)c4cc(C(F)(F)F)ccc4Cl)C[C@H]3N)C2)nc2ccccc21 :: 6.00 to 7.00
COCCCn1c([C@@H]2CCCN(C(=O)[C@@H]3CN(S(=O)(=O)c4cc(C)ccc4C#N)C[C@H]3N)C2)nc2ccccc21 :: < 6.00
COCCCn1c([C@]2(O)CCCN(C(=O)C[C@H](N)Cc3ccc(Cl)cc3)C2)nc2ccccc21 :: < 6.00
COCCCn1c([C@@H]2CCCN(C(=O)C[C@H](N)CNC(=O)Nc3cccc(Cl)c3)C2)nc2ccccc21 :: > 7.00

Input: Consider the compound NC(=O)CCn1c([C@@H]2CCCN(C(=O)C[C@H](N)Cc3ccc(-c4cnc(N)nc4)cc3)C2)nc2ccccc21 and give its measured pIC50.
Output: 6.00 to 7.00

Input: Cool, now COCCCn1c([C@@H]2CCCN(C(=O)C[C@H](N)Cc3ccc(N4CCC(CO)CC4)cc3)C2)nc2ccccc21
Output: 6.00 to 7.00

Input: Cool, now COCCCn1c([C@@H]2CCCN(C(=O)[C@@H]3CN(S(=O)(=O)C(C)C)C[C@H]3N)C2)nc2ccccc21
Output: 6.00 to 7.00

Input: Cool, now COCCCn1c([C@@H]2CCCN(C(=O)C[C@H](N)Cc3ccc4ccccc4c3)C2)nc2ccc(Cl)cc21
Output: 6.00 to 7.00

Input: Cool, now Cc1ccccc1C[C@@H](N)CC(=O)N1CCCC(c2nc3ccccc3[nH]2)C1 (stereo partly drawn)
Output: < 6.00

Input: Cool, now COc1cc(OC)cc([C@@H](N)CC(=O)N2CCCC(c3nc4ccccc4[nH]3)C2)c1 (stereo partly drawn)
Output: < 6.00

Input: Cool, now CCOc1ccccc1NC(=O)NC[C@@H](N)CC(=O)N1CCC[C@@H](c2nc3ccccc3n2CCCOC)C1
Output: 6.00 to 7.00

Input: Cool, now N[C@@H](CC(=O)N1CCCC(c2nc3ccccc3[nH]2)C1)Cc1ccc(Cl)cc1 (stereo partly drawn)
Output: < 6.00

Input: Cool, now COCCCn1c([C@@H]2CCCN(C(=O)C[C@H](N)CNC(=O)C(C)C)C2)nc2ccccc21
Output: < 6.00

Input: Cool, now COCCCn1c([C@@H]2CCCN(C(=O)C[C@H](N)Cc3ccc(-n4ccc5ccccc5c4=O)cc3)C2)nc2ccccc21
Output: > 7.00

Input: Cool, now COCCCn1c([C@@H]2CCCN(C(=O)C[C@H](N)Cc3ccc(-c4ccccc4OC)cc3)C2)nc2ccccc21
Output: > 7.00

Input: Cool, now NC(=O)CCn1c([C@@H]2CCCN(C(=O)C[C@H](N)Cc3ccc(-c4ccc5c(c4)OC(F)(F)O5)cc3)C2)nc2ccccc21
Output: 6.00 to 7.00

Input: Cool, now COc1cccc([C@@H](N)CC(=O)N2CCCC(c3nc4ccccc4[nH]3)C2)c1OC (stereo partly drawn)
Output: < 6.00
